tested on: NCI-H2373 (Mesothelioma); test: combination Emax (second highest fraction inhibited in the dose matrix, 72 h); higher = more inhibition; extreme values may be limits of the assay
Each entry below carries its recorded combination Emax.
Number, no unit, nothing else.

// recorded combination Emax for Cn1cnc2c(F)c(Nc3ccc(Br)cc3Cl)c(C(=O)NOCCO)cc21 [Selumetinib] + CC(C)n1c(=O)n(C)c2cnc3cc(F)c(-c4ccc(OCCCN5CCCCC5)nc4)cc3c21 [AZD1390] (first compound max 10 µM, 7x7, partner max 0.3 µM) : 0.298

Now consider the entry below.
// recorded combination Emax for CN(CCO)CC[C@H](CSc1ccccc1)Nc1ccc(S(=O)(=O)NC(=O)c2ccc(N3CCC([C@@H](O)c4ccccc4-c4ccc(Cl)cc4)CC3)cc2)cc1S(=O)(=O)C(F)(F)F [AZD4320] + C=CCn1c(=O)c2cnc(Nc3ccc(N4CCN(C)CC4)cc3)nc2n1-c1cccc(C(C)(C)O)n1 [AZD1775] (first compound max 1 µM, partner max 1 µM) : 0.404

----------
Each entry below carries its recorded Bliss excess.
tested on: CL-11 (Colorectal Carcinoma); experiment: Bliss excess, mean over the matrix (fraction); higher = more synergy

CCN(CCO)CCCOc1ccc2c(Nc3cc(CC(=O)Nc4cccc(F)c4)[nH]n3)ncnc2c1 [AZD2811] + O=C(c1cc(Cc2n[nH]c(=O)c3ccccc23)ccc1F)N1CCN(C(=O)C2CC2)CC1 [Olaparib] (first compound max 1 µM, 7x7, partner max 10 µM) on CL-11 (Colorectal Carcinoma) gives Bliss excess = 0.0084

Cn1cnc2c(F)c(Nc3ccc(Br)cc3Cl)c(C(=O)NOCCO)cc21 [Selumetinib] + C[C@@H]1COCCN1C2=NC(=NC(=C2)C3(CC3)[S@](=N)(=O)C)C4=C5C=CNC5=NC=C4 [AZD6738] (first compound max 10 µM, 7x7, partner max 10 µM) on CL-11 (Colorectal Carcinoma) gives Bliss excess = 0.0244

----------
test system: UACC-257 (Melanoma); assay: Bliss excess, mean over the matrix (fraction); higher = more synergy
Bliss excess vs -0.009: at or above is 1.0, below is 0.0.

Answered examples (6):
Form field: Bliss excess at least -0.009? Entry: CN(CCO)CC[C@H](CSc1ccccc1)Nc1ccc(S(=O)(=O)NC(=O)c2ccc(N3CCC([C@@H](O)c4ccccc4-c4ccc(Cl)cc4)CC3)cc2)cc1S(=O)(=O)C(F)(F)F [AZD4320] + Cn1cnc2c(F)c(Nc3ccc(Br)cc3Cl)c(C(=O)NOCCO)cc21 [Selumetinib] (first compound max 1 µM, 7x7, partner max 3 µM) 1.0

Form field: Bliss excess at least -0.009? Entry: COc1cccc(OCCCN)c1-c1cc(Nc2cnc(C#N)cn2)n[nH]1 [Prexasertib] + C[C@@H]1COCCN1C2=NC(=NC(=C2)C3(CC3)[S@](=N)(=O)C)C4=C5C=CNC5=NC=C4 [AZD6738] (first compound max 1 µM, 7x7, partner max 10 µM) 1.0

Form field: Bliss excess at least -0.009? Entry: C=CCn1c(=O)c2cnc(Nc3ccc(N4CCN(C)CC4)cc3)nc2n1-c1cccc(C(C)(C)O)n1 [AZD1775] + C1CN(CCC1(C(=O)N[C@@H](CCO)C2=CC=C(C=C2)Cl)N)C3=NC=NC4=C3C=CN4 [Capivasertib] (first compound max 3 µM, partner max 3 µM) 0.0

Form field: Bliss excess at least -0.009? Entry: CC(=O)c1c(C)c2cnc(Nc3ccc(N4CCNCC4)cn3)nc2n(C2CCCC2)c1=O [Palbociclib] + Cn1cnc2c(F)c(Nc3ccc(Br)cc3Cl)c(C(=O)NOCCO)cc21 [Selumetinib] (first compound max 10 µM, 7x7, partner max 10 µM) 1.0

Form field: Bliss excess at least -0.009? Entry: CC1(C)CCC(CN2CCN(c3ccc(C(=O)NS(=O)(=O)c4ccc(NCC5CCOCC5)c([N+](=O)[O-])c4)c(Oc4cnc5[nH]ccc5c4)c3)CC2)=C(c2ccc(Cl)cc2)C1 [Venetoclax] + Cc1cc2ncnn2cc1Nc1ncc2c(n1)n(C1CCOCC1)c(=O)n2C [AZD7648] (first compound max 1 µM, 7x7, partner max 10 µM) 0.0

Form field: Bliss excess at least -0.009? Entry: COc1nnc2ccc(N3CCC(c4ccc(OCCN5CCN(C)C(=O)[C@H]5C)cc4)CC3)nn12 [AZD5153] + CCN(CCO)CCCOc1ccc2c(Nc3cc(CC(=O)Nc4cccc(F)c4)[nH]n3)ncnc2c1 [AZD2811] (first compound max 1 µM, 7x7, partner max 1 µM) 1.0

Shift focus to the following entry.
Form field: Bliss excess at least -0.009? Entry: CN(C)CCCOc1ccc(-c2ccc3ncc4c(c3c2)n(C2CCOCC2)c(=O)n4C)cn1 [AZD0156] + O=C(c1cc(Cc2n[nH]c(=O)c3ccccc23)ccc1F)N1CCN(C(=O)C2CC2)CC1 [Olaparib] (first compound max 3 µM, partner max 3 µM) 1.0
